- PROCEDURE_TEXT: yeast display, Sf9 membrane polyspecificity reagent, FACS + sequencing; frameworks hold sequencing errors
REPORTED_PROPERTY: polyreactivity (PSR sort gate)

QVQLVESGGGLVQAGGSLRLSCAASGFTFSYYGMVWYRQAPWKERELVAGISRGGSTYYADSVKGRFTISRDNAKNTVYLQMNSLKPEDTAVYYCAAAERLRHGLKFDYWGQGTQVTVSS
high polyreactivity
QVQLVESAGGLVQAGGSLRLSCAASGRIFRANAMGWYRQAPGKERELVATIRNSGGITYYADSVKGRFTISRDHAKNTVYLQMNSLIPEDTAVYYCAKLGRYGYDYWGQGTQVTVSS
high polyreactivity
QVQLVESGGGLVQAGGSLRLSCAASGSTFYTNAMGWYRQAPWKERELVAAISNAVSTYYADSVKGRFTISRDNAKNTVYLQMKSLKPEDTAVYYCAADPIGLSSLWFRYSVSDVDYWGQGTQVTVSS
low polyreactivity
QVQLVESVGGLVQAGGSLRLSCAASGSTFLVYAMGWYRQAPGKERELVAAITQIDGSTYYADSVKGRFTISRDNAKNTVYLQMNSLKPEDTAVYYCAARYFWTYEYDYWGQGTQVTVSS
low polyreactivity

Could you now consider this next sequence?
Please report the recorded polyreactivity (PSR sort gate) for "QVLLVESGGGLVQAGGSLRLSCAASGYIFNRYVMGWTIQAPGKERELVAAIYIRGGSTFYSDSVKGCFTISRDNAKYTVYLQMNSLKPDDSAVYYCDDGRYGDYGYWGQGTQLTVSS" . high polyreactivity
